binders and their reported SPOT peptide array binding signal intensity
System name: ScSla1-D1-D2
Test description: SPOT peptide array binding signal intensity (averaged, normalized) (arbitrary units (background-subtracted, floor 0; scale differs between SH3 domains)); higher = stronger binding of the SH3 domain to the peptide
Enter the number alone.

input: Endpoint output: SPOT peptide array binding signal intensity of HPRFVSPRIPSRIVK . Value?
output: 720

input: Endpoint output: SPOT peptide array binding signal intensity of RPVPPPPPMRTTTEG . Value?
output: 1870

input: Endpoint output: SPOT peptide array binding signal intensity of SRQAIPPPVPNRPGG . Value?
output: 695

input: Endpoint output: SPOT peptide array binding signal intensity of ALRRRLPVTRSKINW . Value?
output: 713

input: Endpoint output: SPOT peptide array binding signal intensity of DAPASKPSVPPRNYF . Value?
output: 329

input: Endpoint output: SPOT peptide array binding signal intensity of IKTRSVPKIPSIESV . Value?
output: 146

input: Endpoint output: SPOT peptide array binding signal intensity of GAGERPRLVPRPINV . Value?
output: 25.5

input: Endpoint output: SPOT peptide array binding signal intensity of VQQDSLPKLPFRSWG . Value?
output: 3.5

input: Endpoint output: SPOT peptide array binding signal intensity of YVRRRPRVRLEPLLS . Value?
output: 309

input: Endpoint output: SPOT peptide array binding signal intensity of TIRRRAPLSLLESHT . Value?
output: 337

input: Endpoint output: SPOT peptide array binding signal intensity of LFMKGTPEFPKSGFS . Value?
output: 176

input: Endpoint output: SPOT peptide array binding signal intensity of VPKEPAPAPPPEPDM . Value?
output: 3.5
